# Read-out: Glutathione S-transferase M3 (GSTM3), GSTM3 (gene 2947)
# assay text: LTEA_HepaRG_GSTM3: Life Technologies and Expression Analysis (LTEA) Assay for Glutathione S-transferase M3 (GSTM3) using HepaRG (AID 2283501)
# test context: mRNA level, 48 h; actives raise or lower the signal
Active and inactive are the calls of the source. How the source made its calls: active means hit-call score of the fitted dose curve at least 0.9, where 1 is the maximum; inactive means score below 0.9.
Form entry, call: pick from T for active, F for inactive

Some solved cases for reference:
| compound | class assignment |
| --- | --- |
| CN1CCN(c2ccccc2/C=C2\SCCN(c3ccc(Cl)c(Cl)c3)C2=O)CC1 | F |
| c1ccc2cc3c(ccc4ccccc43)cc2c1 | F |

What did the test return for "Cc1cc(CCN2CCN(c3nsc4ccccc34)CC2)cc2c1NC(=O)CC2(C)C" ?
F

What did the test return for "O=C(O)Cc1cc(I)c(Oc2cc(I)c(O)c(I)c2)c(I)c1" ?
T

What did the test return for "OC1CCCCC1" ?
F

What did the test return for "CCN(CC)CCNc1ccc(CNC=O)c2sc3ccc(OC)cc3c(=O)c12" ?
F

What did the test return for "COc1ccc([N+](=O)[O-])cc1N" ?
F

What did the test return for "O=[N+]([O-])c1ccc(O)cc1" ?
F

What did the test return for "CCCCCCCCCCCCc1ccccc1S(=O)(=O)O" ?
F

What did the test return for "CCCCCCCCOC(=O)CCCCCCCCC(=O)OCCCCCCCC" ?
F

What did the test return for "O=C(O)c1ccccc1C(c1ccc(O)cc1)c1ccc(O)cc1" ?
F

====

# system: D(1A) dopamine receptor (Homo sapiens)
# assay text: NVS_GPCR_hDRD1: NovaScreen (NVS) G Protein-Coupled Receptor Assay for human Dopamine Receptor D1 (DRD1) (AID 2283269)
Results filed as inconclusive are left out. Activity calls are given as the source filed them. Rule for the calls: active = hit-call score of the fitted dose curve at least 0.9, where 1 is the maximum; inconclusive = response in the unintended direction; inactive = score below 0.9.
Form entry, call: pick from active, inactive

Some solved cases for reference:
| compound | class assignment |
| --- | --- |
| NC(=O)N(O)[C@@H]1C=C[C@H](Oc2cccc(Oc3ccc(F)cc3)c2)C1 | active |
| CCCCCCCCCCCCCC[N+](C)(C)C | active |
| NC(=O)N1C(=O)C(C(=O)c2cc(Cl)cs2)c2cc(F)c(Cl)cc21 (stereo not drawn) | inactive |
| Cc1oc(-c2ccccc2)nc1CCOc1ccc(C[C@H](Nc2ccccc2C(=O)c2ccccc2)C(=O)O)cc1 | active |
| CC(=O)NC1(c2cccc(F)c2)CCN(CC[C@@]2(c3ccc(Cl)c(Cl)c3)CN(c3ccccc3)C(=O)CO2)CC1 | active |
| CCCCCCCCCCCCc1ccccc1S(=O)(=O)O | active |

What did the test return for "CCC(=C(c1ccc(O)cc1)c1ccc(OCCN(C)C)cc1)c1ccccc1" ?
active

What did the test return for "CCCOc1sc(C(=O)N2CCC(c3cc(CN)ccc3F)CC2)c(C)c1Br" ?
active

====

# assay text: APR_HepG2_CellCycleArrest_24hr: Apredica 24-hour HepG2 Assay for Cell Cycle Arrest (AID 2282905);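 further: cell cycle arrest scored as ratio of 2N to 4N nuclear DNA content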
# test context: imaging, actives raise or lower the signal
The source made the active and inactive calls. The calls were made as follows: active = hit-call score of the fitted dose curve at least 0.9, where 1 is the maximum; inactive = score below 0.9.
Form entry, call: pick from active, inactive

Some solved cases for reference:
| compound | class assignment |
| --- | --- |
| CCCCCCCC(=O)O | inactive |
| Oc1cccc(O)c1 | inactive |
| CCCCCCCCCCCCc1ccccc1S(=O)(=O)O | inactive |
| C[C@@H]1C[C@H]2[C@@H]3CCC4=CC(=O)C=C[C@]4(C)[C@@]3(F)[C@@H](O)C[C@]2(C)[C@@]1(O)C(=O)COP(=O)(O)O | inactive |
| Oc1cc2ccccc2c2ccccc12 | active |

What did the test return for "CCN(CC)CCNc1ccc(CNC=O)c2sc3ccc(OC)cc3c(=O)c12" ?
active

What did the test return for "CC(C)(C)c1ccc(O)c(C(C)(C)C)c1" ?
inactive

What did the test return for "OCCC(F)(F)C(F)(F)C(F)(F)C(F)(F)C(F)(F)C(F)(F)F" ?
inactive

What did the test return for OC1CCC(C2CCCCC2)CC1 (configuration not stated) ?
inactive

What did the test return for "CCCCCCCCOC(=O)CCCCCCCCC(=O)OCCCCCCCC" ?
inactive

What did the test return for COCC(C)O (configuration not stated) ?
inactive

What did the test return for "c1ccc2c(c1)ccc1ccccc12" ?
inactive

What did the test return for "C=C(C)C(=O)OCCC(F)(F)C(F)(F)C(F)(F)C(F)(F)C(F)(F)C(F)(F)F" ?
inactive

====

# system: Estrogen receptor (Homo sapiens)
# assay text: OT_ER_ERaERa_1440: Odyssey Thera (OT) 24-hour HEK293T Protein-Complementation Assay for Estrogen Receptor-alpha/-alpha Homodimer (AID 2283349);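 further: hits raise fluorescence above DMSO for agonists and antagonists alike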
The source made the active and inactive calls. Rule for the calls: active = hit-call score of the fitted dose curve at least 0.9, where 1 is the maximum; inconclusive = response in the unintended direction; inactive = score below 0.9.
Form entry, call: pick from true for active, false for inactive

Some solved cases for reference:
| molecule | class assignment |
| --- | --- |
| COC(=O)CCCCC(=O)OC | false |
| CCN(CC)CCNc1ccc(CNC=O)c2sc3ccc(OC)cc3c(=O)c12 | false |
| CC[C@H](C)[C@@H](C(=O)O)n1sc2ccccc2c1=O | false |
| CC(C)(C)CC(C)(C)c1ccc(O)c(-n2nc3ccccc3n2)c1 | false |
| OCCC(F)(F)C(F)(F)C(F)(F)C(F)(F)C(F)(F)C(F)(F)F | false |

What did the test return for N#C[C@@H]1CC(F)(F)CN1C(=O)CNC1CC2CCC(C1)N2c1ncccn1 (stereo partly specified) ?
false

What did the test return for "CC1=C(/C=C/C(C)=C/C=C/C(C)=C/C(=O)O)C(C)(C)CCC1" ?
false

What did the test return for "Nc1cccc2c(N)cccc12" ?
true

What did the test return for "CC#C[C@]1(O)CC[C@H]2[C@@H]3CCC4=CC(=O)CCC4=C3[C@@H](c3ccc(N(C)C)cc3)C[C@@]21C" ?
false

What did the test return for COCC(C)OCC(C)O (stereo unspecified) ?
false

What did the test return for "NC(=O)N(O)[C@@H]1C=C[C@H](Oc2cccc(Oc3ccc(F)cc3)c2)C1" ?
false

What did the test return for CCc1ccc(CCOc2ccc(CC3SC(=O)NC3=O)cc2)nc1 (stereo unspecified) ?
true

What did the test return for "Oc1cccc(O)c1" ?
false

What did the test return for "Cc1oc(-c2ccccc2)nc1CCOc1ccc(C[C@H](Nc2ccccc2C(=O)c2ccccc2)C(=O)O)cc1" ?
false

====

# system: Estrogen receptor (Homo sapiens) + Estrogen receptor beta (Homo sapiens) (UniProt P03372+Q92731)
# Sequence (P03372 whole entry, looked up, the tested form may be a part): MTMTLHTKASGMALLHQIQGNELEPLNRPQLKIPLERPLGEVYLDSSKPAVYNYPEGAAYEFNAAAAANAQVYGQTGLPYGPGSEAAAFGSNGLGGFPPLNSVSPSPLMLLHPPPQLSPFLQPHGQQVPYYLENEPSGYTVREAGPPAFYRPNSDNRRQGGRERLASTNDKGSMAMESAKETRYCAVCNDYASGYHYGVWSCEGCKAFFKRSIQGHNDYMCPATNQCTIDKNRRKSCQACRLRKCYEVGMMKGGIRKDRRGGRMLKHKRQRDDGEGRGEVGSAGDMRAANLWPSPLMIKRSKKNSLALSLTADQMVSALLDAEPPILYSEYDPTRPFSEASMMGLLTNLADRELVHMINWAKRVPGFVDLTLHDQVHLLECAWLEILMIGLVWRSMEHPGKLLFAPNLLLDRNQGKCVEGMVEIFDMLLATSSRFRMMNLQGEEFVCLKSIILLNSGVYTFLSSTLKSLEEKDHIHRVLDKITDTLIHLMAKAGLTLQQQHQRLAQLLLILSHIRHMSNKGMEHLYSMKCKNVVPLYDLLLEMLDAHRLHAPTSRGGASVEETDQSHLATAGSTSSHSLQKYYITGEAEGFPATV
# Sequence (Q92731 whole entry, looked up, the tested form may be a part): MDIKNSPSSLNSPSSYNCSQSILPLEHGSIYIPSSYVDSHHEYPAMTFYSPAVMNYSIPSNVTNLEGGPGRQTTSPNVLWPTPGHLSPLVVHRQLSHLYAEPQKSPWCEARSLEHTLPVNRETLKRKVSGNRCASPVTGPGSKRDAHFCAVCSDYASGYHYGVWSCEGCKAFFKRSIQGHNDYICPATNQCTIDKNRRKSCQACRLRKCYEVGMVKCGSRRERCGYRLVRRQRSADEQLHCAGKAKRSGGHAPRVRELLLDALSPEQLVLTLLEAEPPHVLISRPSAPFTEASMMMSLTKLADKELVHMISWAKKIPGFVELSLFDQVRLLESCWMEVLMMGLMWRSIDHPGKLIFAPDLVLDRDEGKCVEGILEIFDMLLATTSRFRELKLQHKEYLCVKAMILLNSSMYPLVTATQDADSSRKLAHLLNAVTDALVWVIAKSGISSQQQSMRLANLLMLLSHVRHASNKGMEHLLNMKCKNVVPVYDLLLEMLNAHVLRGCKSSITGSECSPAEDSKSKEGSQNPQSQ
# assay text: OT_ER_ERaERb_1440: Odyssey Thera (OT) 24-hour HEK293T Protein-Complementation Assay for Estrogen Receptor-alpha/-beta Homodimer (AID 2283356);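 further: heteromer of ER alpha and ER beta binding domains; hits raise reporter fluorescence and both agonists and antagonists give an increase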
Records with an inconclusive call do not appear. Active and inactive are the calls of the source. The calls were made as follows: active = hit-call score of the fitted dose curve at least 0.9, where 1 is the maximum; inconclusive = response in the unintended direction; inactive = score below 0.9.
Form entry, call: pick from active, inactive

What did the test return for "CCCCCCCCCCCCCCCS(=O)(=O)Oc1ccccc1" ?
inactive

What did the test return for "C#C[C@]1(O)CC[C@H]2[C@@H]3CCC4=CC(=O)CC[C@@H]4[C@H]3CC[C@@]21C" ?
inactive

====

# system: zebrafish Estrogen Receptor (ER1), esr1 (gene 259252) (UniProt P57717)
# Sequence (P57717 whole entry, looked up): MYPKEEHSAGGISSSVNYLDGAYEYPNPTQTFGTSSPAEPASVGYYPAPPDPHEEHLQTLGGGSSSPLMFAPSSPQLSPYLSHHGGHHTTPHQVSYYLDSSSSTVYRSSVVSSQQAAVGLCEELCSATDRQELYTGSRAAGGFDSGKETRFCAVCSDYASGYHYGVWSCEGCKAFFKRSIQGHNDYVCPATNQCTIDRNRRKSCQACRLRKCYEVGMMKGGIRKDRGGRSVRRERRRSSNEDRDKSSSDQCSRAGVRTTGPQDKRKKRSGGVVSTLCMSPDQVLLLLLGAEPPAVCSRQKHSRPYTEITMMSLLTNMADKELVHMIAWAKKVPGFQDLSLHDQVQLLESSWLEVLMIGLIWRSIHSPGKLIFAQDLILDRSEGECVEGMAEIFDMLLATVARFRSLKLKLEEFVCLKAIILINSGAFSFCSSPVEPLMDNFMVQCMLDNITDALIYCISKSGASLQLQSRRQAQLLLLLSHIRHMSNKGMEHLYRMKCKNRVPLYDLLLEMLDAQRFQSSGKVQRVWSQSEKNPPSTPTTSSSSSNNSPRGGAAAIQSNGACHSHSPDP
# assay text: ATG_zfER1_XSP2: Attagene TRANS-FACTORIAL Multi-Species (XSP2) HepG2 Assay for zebrafish Estrogen Receptor (ER1) (AID 2283816)
Results filed as inconclusive are left out. Active and inactive are the calls of the source. How the source made its calls: active means hit-call score of the fitted dose curve at least 0.9, where 1 is the maximum; inconclusive means response in the unintended direction; inactive means score below 0.9.
assay endpoint: AC50

Below, each entry is followed by its recorded AC50 result.
| molecule | assay endpoint | endpoint value |
| --- | --- | --- |
| O=C(O)Cc1cc(I)c(Oc2cc(I)c(O)c(I)c2)c(I)c1 | AC50 | inactive |
| CCC(C)(C)C1CCC(O)CC1 (stereo not given) | AC50 | inactive |
| C#C[C@]1(O)CC[C@H]2[C@@H]3CCC4=CC(=O)CC[C@@H]4[C@H]3CC[C@@]21C | AC50 | 1650 nM (active) |
| CCC(=C(c1ccc(O)cc1)c1ccc(OCCN(C)C)cc1)c1ccccc1 | AC50 | inactive |

The molecule identified as "CC[C@H](c1ccc(O)cc1)[C@@H](CC)c1ccc(O)cc1" registered its AC50 at 0.411 nM (active)

====

# Read-out: flavin-containing dimethylaniline monooxygenases 3 (FMO3), FMO3 (gene 2328)
# assay text: LTEA_HepaRG_FMO3: Life Technologies and Expression Analysis (LTEA) Assay for flavin-containing dimethylaniline monooxygenases 3 (FMO3) using HepaRG (AID 2283453)
# test context: mRNA level, 48 h; actives raise or lower the signal
Activity calls are given as the source filed them. Rule for the calls: active = hit-call score of the fitted dose curve at least 0.9, where 1 is the maximum; inactive = score below 0.9.
Form entry, call: pick from active, inactive

Some solved cases for reference:
| compound | class assignment |
| --- | --- |
| CC(=O)CC(C)(C)O | inactive |
| OCCC(F)(F)C(F)(F)C(F)(F)C(F)(F)C(F)(F)C(F)(F)C(F)(F)C(F)(F)F | inactive |
| CCCCCCC(=O)O | inactive |
| CCC(C)(C)C1CCC(O)CC1 (configuration not stated) | inactive |
| NC(=O)N1C(=O)C(C(=O)c2cc(Cl)cs2)c2cc(F)c(Cl)cc21 (configuration not stated) | active |
| CCCCCCCCC(=O)O | inactive |
| CCC(=C(c1ccc(O)cc1)c1ccc(OCCN(C)C)cc1)c1ccccc1 | inactive |
| O=C(OCCOCCOC(=O)c1ccccc1)c1ccccc1 | inactive |
| CCCCC(CC)COC(=O)CCCCC(=O)OCc1ccccc1 (configuration not stated) | inactive |
| CCOC(=O)CC(O)(CC(=O)OCC)C(=O)OCC | inactive |

What did the test return for "CC(C)(C)c1cc(C(C)(C)C)c(O)c(C(C)(C)C)c1" ?
inactive

What did the test return for N#C[C@@H]1CC(F)(F)CN1C(=O)CNC1CC2CCC(C1)N2c1ncccn1 (some centres not stated) ?
inactive
